B1: F1*; the commonest letter at each place (parent)
chain: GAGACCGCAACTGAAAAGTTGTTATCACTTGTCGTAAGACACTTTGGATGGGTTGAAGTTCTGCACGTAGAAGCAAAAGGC

Variants of: B1
Assay: fraction ligated after 30 min (ligated reads / total reads); higher = more ligase activity
Settings: with F1*sub RNA substrate (template-directed ligation), 42 °C
Mark label 1 for reported fraction ligated of 0.8 or greater; mark label 0 for anything smaller.

variant spec | class name
C40G G46A | label 1
T23C G50C | label 0
C42A G47A | label 1
C33T G50A | label 0

Qu. Is fraction ligated for T25A C33G at or above 0.8?
Ans. label 0

Qu. Is fraction ligated for T23A C33T at or above 0.8?
Ans. label 1

Qu. Is fraction ligated for A24G G38A at or above 0.8?
Ans. label 0

Qu. Is fraction ligated for T30A G47T at or above 0.8?
Ans. label 0

Qu. Is fraction ligated for G47C A56C at or above 0.8?
Ans. label 0

Qu. Is fraction ligated for T45C G46T at or above 0.8?
Ans. label 0

Qu. Is fraction ligated for C26A C33A at or above 0.8?
Ans. label 0

Qu. Is fraction ligated for C33T G38T at or above 0.8?
Ans. label 1

Qu. Is fraction ligated for A39G C42G at or above 0.8?
Ans. label 1

Qu. Is fraction ligated for T30G A37G at or above 0.8?
Ans. label 1

Qu. Is fraction ligated for T43A G55A at or above 0.8?
Ans. label 1
